# Experimental system: POLRMT (Homo sapiens (Human), UniProt O00411)
# Sequence (O00411 42-1230): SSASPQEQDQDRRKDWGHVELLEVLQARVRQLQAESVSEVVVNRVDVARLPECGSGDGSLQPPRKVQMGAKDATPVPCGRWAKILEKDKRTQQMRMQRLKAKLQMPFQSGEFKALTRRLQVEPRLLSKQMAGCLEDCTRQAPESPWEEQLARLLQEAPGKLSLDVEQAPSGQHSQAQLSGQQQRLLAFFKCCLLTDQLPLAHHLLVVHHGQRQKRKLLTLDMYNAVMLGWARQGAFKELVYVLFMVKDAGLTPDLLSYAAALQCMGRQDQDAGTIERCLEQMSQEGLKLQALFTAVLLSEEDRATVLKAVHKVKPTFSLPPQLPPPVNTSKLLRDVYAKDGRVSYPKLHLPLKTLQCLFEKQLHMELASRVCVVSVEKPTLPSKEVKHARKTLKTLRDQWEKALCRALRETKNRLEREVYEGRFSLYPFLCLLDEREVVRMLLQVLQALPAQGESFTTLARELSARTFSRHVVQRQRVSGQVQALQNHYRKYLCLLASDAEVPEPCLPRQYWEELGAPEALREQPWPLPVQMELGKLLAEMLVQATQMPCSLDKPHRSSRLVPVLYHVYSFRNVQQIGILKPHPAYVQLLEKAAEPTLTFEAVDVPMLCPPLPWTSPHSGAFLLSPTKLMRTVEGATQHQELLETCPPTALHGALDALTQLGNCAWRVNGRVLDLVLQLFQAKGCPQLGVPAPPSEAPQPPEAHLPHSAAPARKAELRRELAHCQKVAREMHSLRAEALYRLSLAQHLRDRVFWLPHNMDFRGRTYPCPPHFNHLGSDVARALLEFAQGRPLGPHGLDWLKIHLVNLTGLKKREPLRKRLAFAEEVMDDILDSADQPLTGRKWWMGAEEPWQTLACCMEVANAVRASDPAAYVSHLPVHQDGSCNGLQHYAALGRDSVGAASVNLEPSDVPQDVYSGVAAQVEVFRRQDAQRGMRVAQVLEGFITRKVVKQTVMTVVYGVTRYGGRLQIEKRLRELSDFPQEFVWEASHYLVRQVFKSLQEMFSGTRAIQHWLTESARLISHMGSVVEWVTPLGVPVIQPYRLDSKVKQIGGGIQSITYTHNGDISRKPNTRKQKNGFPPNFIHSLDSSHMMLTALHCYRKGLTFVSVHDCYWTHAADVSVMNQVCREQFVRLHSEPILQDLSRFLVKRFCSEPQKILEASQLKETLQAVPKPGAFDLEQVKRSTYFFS
# Protocol: homogeneous TR-FRET assay of POLRMT inhibition (mitochondrial transcription, 407 bp RNA product)
# Experimental context: 7.5 nM POLRMT, 15 nM TFB2M, 30 nM TFAM, 0.5 nM DNA template, 500 μM NTPs, 37° C., 60 minutes, * = aggregation of data sets, read-out: IC50 values for isoquinolinone compounds
# Description: The inhibitory activity of the compounds of the present invention against POLRMT were determined by assays based on Bergbrede, T., et al., “An adaptable high-throughput technology enabling the identification of specific transcription modulators,” SLAC Discov., 22, 378-386 (2017). The ability of some compounds of the present invention to inhibit POLRMT were determined in a homogeneous TR-FRET Assay using high-throughput screening in a 384-well plate format. […]
pIC50: −log10 of the molar value.
Values of pIC50 greater than or equal to 7 map to 1; values below map to -1.

Example entries begin here.
Request: Reported pIC50 at or above 7? Cc1c(F)cccc1-c1c[nH]c(=O)c2cc(O[C@H](C)C(=O)N3CCN(C(N)=O)CC3)ccc12
Response: 1

Request: Reported pIC50 at or above 7? CC(=O)NCCN(C)C(=O)[C@@H](C)Oc1ccc2c(-c3ccccc3C)c[nH]c(=O)c2c1
Response: -1

Request: Reported pIC50 at or above 7? CCNC1CCN(C(=O)[C@@H](C)Oc2ccc3c(-c4ccccc4C)c[nH]c(=O)c3c2)CC1
Response: -1

Request: Reported pIC50 at or above 7? Cc1ccccc1-c1c[nH]c(=O)c2cc(O[C@H](C)C(=O)N3CCC[C@H](CC(N)=O)C3)ccc12
Response: 1

Next:
Request: Reported pIC50 at or above 7? CNC1CCN(C(=O)[C@@H](C)Oc2ccc3c(-c4ccccc4C)c[nH]c(=O)c3c2)CC1
Response: -1

* * *

# Experimental system: POLRMT (Homo sapiens (Human))
# Protocol: homogeneous TR-FRET assay of POLRMT inhibition (mitochondrial transcription, 407 bp RNA product)
# Experimental context: 7.5 nM POLRMT, 15 nM TFB2M, 30 nM TFAM, 0.5 nM DNA template, 500 μM NTPs, 37° C., 60 minutes, * = aggregation of data sets, read-out: IC50 values for isoquinolinone compounds
Observable: IC50

Request: Tell us which IC50 value is on record for CC(=O)N(C)CCN(C)C(=O)[C@@H](C)Oc1ccc2c(-c3ccccc3C)c[nH]c(=O)c2c1
Response: 2000 nM

Request: Tell us which IC50 value is on record for CC(=O)N[C@@H]1CCCN(C(=O)[C@@H](C)Oc2ccc3c(-c4ccccc4C)c[nH]c(=O)c3c2)C1
Response: 100 nM

Request: Tell us which IC50 value is on record for Cc1cccc(C)c1-c1c[nH]c(=O)c2cc(O[C@H](C)C(=O)N3CCC(C)(C(=O)O)CC3)ccc12
Response: 100 nM

Request: Tell us which IC50 value is on record for CCC1(C(=O)O)CCCN(C(=O)[C@@H](C)Oc2ccc3c(-c4ccccc4C)c[nH]c(=O)c3c2)C1 (single isomer, unassigned) [Example 52]
Response: 20 nM

Further cases:
Request: Tell us which IC50 value is on record for Cc1cccc(C#N)c1-c1c[nH]c(=O)c2cc(OCC#N)ccc12
Response: 500 nM

Request: Tell us which IC50 value is on record for COCCN1CCN(C(=O)[C@@H](C)Oc2ccc3c(-c4ccccc4C)c[nH]c(=O)c3c2)CC1=O
Response: 300 nM

Request: Tell us which IC50 value is on record for Cc1ccccc1-c1c[nH]c(=O)c2cc(O[C@H](C)C(=O)N3CCC[C@H](N(C)C)C3)ccc12
Response: 200 nM

* * *

# Experimental system: POLRMT (Homo sapiens (Human), UniProt O00411)
# Protocol: homogeneous TR-FRET assay of POLRMT inhibition (mitochondrial transcription, 407 bp RNA product)
# Experimental context: 7.5 nM POLRMT, 15 nM TFB2M, 30 nM TFAM, 0.5 nM DNA template, 500 μM NTPs, 37° C., 60 minutes, * = aggregation of data sets, read-out: IC50 values for isoquinolinone compounds
Recorded measurements of IC50, one per entry
Answer format: numeric, nM implied, no suffix.

Sample records with IC50:
Request: Report its IC50 with POLRMT (Homo sapiens (Human), UniProt O00411) as the test system: CCN1CCN(C(=O)[C@@H](C)Oc2ccc3c(-c4ccccc4C)c[nH]c(=O)c3c2)CC1 [Example 18]
Response: 200

Request: Report its IC50 with POLRMT (Homo sapiens (Human), UniProt O00411) as the test system: Cc1ccccc1-c1c[nH]c(=O)c2cc(N(C)CC(=O)N[C@H](C)C(N)=O)ccc12 [Example 69]
Response: 3000

Request: Report its IC50 with POLRMT (Homo sapiens (Human), UniProt O00411) as the test system: CC(=O)N(C)CCNC(=O)[C@@H](C)Oc1ccc2c(-c3ccccc3C)c[nH]c(=O)c2c1 [Example 17]
Response: 2000

Further cases:
Request: Report its IC50 with POLRMT (Homo sapiens (Human), UniProt O00411) as the test system: C[C@@H](Oc1ccc2c(-c3ccc(F)cc3Cl)c[nH]c(=O)c2c1)C(=O)N1CCCC(C(C)(C)C(=O)O)C1 (single isomer, unassigned) [Example 50]
Response: 60

* * *

# Experimental system: POLRMT (Homo sapiens (Human), UniProt O00411)
# Protocol: homogeneous TR-FRET assay of POLRMT inhibition (mitochondrial transcription, 407 bp RNA product)
# Experimental context: 7.5 nM POLRMT, 15 nM TFB2M, 30 nM TFAM, 0.5 nM DNA template, 500 μM NTPs, 37° C., 60 minutes, * = aggregation of data sets, read-out: IC50 values for isoquinolinone compounds
Observable: pIC50
API: returns pIC50 as number; meaning -log10 of concentration in mol/L.

Sample records with pIC50:
Request: Tell us which pIC50 value is on record for Cc1c(F)cccc1-c1c[nH]c(=O)c2cc(N(C)CC(=O)NCCO)ccc12 [Example 70]
Response: 6.00

Request: Tell us which pIC50 value is on record for Cc1cc(F)ccc1-c1c[nH]c(=O)c2cc(O[C@H](C)C(=O)N3CCN(C(N)=O)CC3)ccc12 [Example 56]
Response: 7.52

Request: Tell us which pIC50 value is on record for Cc1ccccc1-c1c[nH]c(=O)c2cc(O[C@H](C)C(=O)N(C)CC(N)=O)ccc12 [Example 61]
Response: 7.00

Request: Tell us which pIC50 value is on record for Cc1ccccc1-c1c[nH]c(=O)c2cc(O[C@H](C)C(=O)N(C)CC(=O)O)ccc12 [Example 78]
Response: 6.00

Request: Tell us which pIC50 value is on record for Cc1ccccc1-c1c[nH]c(=O)c2cc(N(C)[C@@H](C)C(=O)N3CCC[C@H](C(=O)O)C3)ccc12 (single isomer, unassigned) [Example 7]
Response: 6.70

Further cases:
Request: Tell us which pIC50 value is on record for CC(=O)N1CC2CC1CN2C(=O)[C@@H](C)Oc1ccc2c(-c3ccc(F)cc3Cl)c[nH]c(=O)c2c1 (stereo partly shown) [Example 6]
Response: 6.00

Request: Tell us which pIC50 value is on record for CCCC1(C(=O)O)CCCN(C(=O)[C@@H](C)Oc2ccc3c(-c4ccccc4C)c[nH]c(=O)c3c2)C1 (single isomer, unassigned) [Example 66]
Response: 7.00

* * *

Recorded measurements of pIC50, one per entry
# Experimental system: UniProt O00411
# Protocol: homogeneous TR-FRET assay of POLRMT inhibition (mitochondrial transcription, 407 bp RNA product)
# Experimental context: 7.5 nM POLRMT, 15 nM TFB2M, 30 nM TFAM, 0.5 nM DNA template, 500 μM NTPs, 37° C., 60 minutes, * = aggregation of data sets, read-out: IC50 values for isoquinolinone compounds
API: returns pIC50 as number; meaning -log10 of concentration in mol/L.

Sample records with pIC50:
Request: Tell us which pIC50 value is on record for CCOC(=O)CN(C)c1ccc2c(-c3ccccc3C)c[nH]c(=O)c2c1
Response: 6.52

Request: Tell us which pIC50 value is on record for Cc1ccccc1-c1c[nH]c(=O)c2cc(O[C@H](C)C(=O)N3CCC(NC(N)=O)CC3)ccc12
Response: 7.15

Could you now consider this next molecule?
Request: Tell us which pIC50 value is on record for CCC1(C(=O)O)CCCN(C(=O)[C@@H](C)Oc2ccc3c(-c4ccccc4C)c[nH]c(=O)c3c2)C1 (single isomer, unassigned) [Example 53]
Response: 7.40

* * *

# Experimental system: POLRMT (Homo sapiens (Human), UniProt O00411)
# Protocol: homogeneous TR-FRET assay of POLRMT inhibition (mitochondrial transcription, 407 bp RNA product)
# Experimental context: 7.5 nM POLRMT, 15 nM TFB2M, 30 nM TFAM, 0.5 nM DNA template, 500 μM NTPs, 37° C., 60 minutes, * = aggregation of data sets, read-out: IC50 values for isoquinolinone compounds
Recorded measurements of pIC50, one per entry
API: returns pIC50 as number; meaning -log10 of concentration in mol/L.

Sample records with pIC50:
Request: Tell us which pIC50 value is on record for Cc1ccccc1-c1c[nH]c(=O)c2cc(O[C@@H](C)C(=O)N[C@H](C)C(N)=O)ccc12
Response: 4.43

Request: Tell us which pIC50 value is on record for Cc1ccccc1-c1c[nH]c(=O)c2cc(O[C@H](C)C(=O)N[C@@H](C)C(N)=O)ccc12
Response: 7.00

Request: Tell us which pIC50 value is on record for CC(=O)N[C@H]1CCCN(C(=O)[C@@H](C)Oc2ccc3c(-c4ccccc4C)c[nH]c(=O)c3c2)C1
Response: 7.00

Further cases:
Request: Tell us which pIC50 value is on record for Cc1ccccc1-c1c[nH]c(=O)c2cc(O[C@H](C)C(=O)N3CCCC(C(C)(C)C(N)=O)C3)ccc12 (single isomer, unassigned) [Example 45]
Response: 7.52
